# target.or.system: human dopamine D2,L receptors (Homo sapiens, UniProt P14416)
# Sequence (P14416 whole entry): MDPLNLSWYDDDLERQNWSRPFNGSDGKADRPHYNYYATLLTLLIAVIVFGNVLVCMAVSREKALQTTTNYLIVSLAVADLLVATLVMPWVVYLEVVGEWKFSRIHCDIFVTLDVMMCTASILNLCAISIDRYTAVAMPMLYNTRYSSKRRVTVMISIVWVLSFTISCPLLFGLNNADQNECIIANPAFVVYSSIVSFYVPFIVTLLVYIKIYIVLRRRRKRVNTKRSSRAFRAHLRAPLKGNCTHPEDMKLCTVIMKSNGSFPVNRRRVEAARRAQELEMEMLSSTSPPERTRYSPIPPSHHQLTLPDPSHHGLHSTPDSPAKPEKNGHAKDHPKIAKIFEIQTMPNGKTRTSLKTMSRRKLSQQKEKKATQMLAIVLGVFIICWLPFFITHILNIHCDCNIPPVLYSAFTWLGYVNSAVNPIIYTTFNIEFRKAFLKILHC
# test.summary: Inhibition of forskolin-induced [3H]-cAMP accumulation in CHO-K1 cells
metric.name: EC50 (nM)
Numbers only, in nM.

1) O=c1[nH]c2cccc(N3CCN(Cc4cccc(-c5ccccc5)c4)CC3)c2o1    15.8
2) CCN(CC)C(=O)N[C@H]1C[C@@H]2c3cccc4[nH]cc(c34)C[C@H]2N(C)C1 [terguride]    0.398

Batch request: EC50 per item, same order as input.
1. CN1CCN(c2cccc3[nH]c(=O)oc23)CC1
2. C=CCN1CCc2nc(N)sc2CC1 [talipexole]
3. O=c1[nH]c2cccc(N3CCN(CCCc4c[nH]c5ccc(F)cc45)CC3)c2o1

1: 31.6; 2: 39.8; 3: 158

* * *

# target.or.system: human dopamine D2,L receptors (Homo sapiens)
# test.summary: Inhibition of forskolin-induced [3H]-cAMP accumulation in CHO-K1 cells
# condition.info: pEC50 (inhibition of cAMP formation)
metric.name: pEC50
Answers are plain numbers, as −log10 of the molar value.

Determine its reported pEC50: `CN1CCN(c2cccc3[nH]c(=O)oc23)CC1`
8.00

* * *

# target.or.system: serotonin reuptake sites (Rattus norvegicus)
# Construct: the cerebral hemispheres were rapidly removed and a P2-synaptosomal fraction was prepared; from tissue; host or cells: rat (Wistar) cerebral hemispheres, P2-synaptosomal fraction
# Sequence (P31652 whole entry): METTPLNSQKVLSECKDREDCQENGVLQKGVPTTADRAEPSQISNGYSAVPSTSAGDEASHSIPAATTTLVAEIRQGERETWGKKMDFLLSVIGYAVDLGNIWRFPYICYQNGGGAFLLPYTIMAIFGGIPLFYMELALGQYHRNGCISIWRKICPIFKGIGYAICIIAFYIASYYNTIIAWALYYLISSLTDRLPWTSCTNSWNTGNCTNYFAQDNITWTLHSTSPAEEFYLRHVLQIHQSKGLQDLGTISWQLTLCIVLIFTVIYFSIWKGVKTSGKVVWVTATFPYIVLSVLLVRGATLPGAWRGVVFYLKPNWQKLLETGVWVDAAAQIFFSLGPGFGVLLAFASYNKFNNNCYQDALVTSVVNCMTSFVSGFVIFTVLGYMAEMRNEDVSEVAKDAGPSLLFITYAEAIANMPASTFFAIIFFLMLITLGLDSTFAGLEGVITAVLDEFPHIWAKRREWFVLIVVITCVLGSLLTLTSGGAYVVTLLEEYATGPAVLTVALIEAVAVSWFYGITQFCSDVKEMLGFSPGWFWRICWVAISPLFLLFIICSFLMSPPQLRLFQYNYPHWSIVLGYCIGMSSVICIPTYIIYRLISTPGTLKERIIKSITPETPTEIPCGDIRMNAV
# test.summary: In vitro functional inhibition of [3H]-serotonin reuptake in rat brain synaptosomes
# Assay type: biochemical
# condition.info: rat brain synaptosomes; read-out: 5-HT uptake pIC50 (converted)
Kindly state IC50 for each of the entries shown.
Answers are plain numbers, in µM.

Illustrative cases are given below, each with its answer.
1) Cn1cc(CCCN2CCN(c3cccc4[nH]c(=O)oc34)CC2)c2cc(F)ccc21    0.126
2) O=c1[nH]c2cccc(N3CCN(CCCc4c[nH]c5ccccc45)CC3)c2o1    0.251

Respectfully, I request IC50 for each entry included below.
1. O=c1[nH]c2cccc(N3CCN(CCCc4c[nH]c5ccc(F)cc45)CC3)c2o1
2. Cc1cccc2c(CCCN3CCN(c4cccc5[nH]c(=O)oc45)CC3)c[nH]c12
3. O=c1[nH]c2cccc(N3CCN(Cc4cccc(-c5ccccc5)c4)CC3)c2o1

0.0251
0.398
15.8

* * *

# target.or.system: human dopamine D2,L receptors (Homo sapiens)
# test.summary: Inhibition of forskolin-induced [3H]-cAMP accumulation in CHO-K1 cells
metric.name: cAMP accum. ε (intrinsic activity)
Give bare numbers.

Example entries and their recorded answers appear below.
1) Fc1ccc([C@@H]2CCNC[C@H]2COc2ccc3c(c2)OCO3)cc1    0.36
2) C=CCN1CCc2nc(N)sc2CC1 [talipexole]    1.00
3) CNCCCN1c2ccccc2CCc2ccccc21    0.12
4) CCN(CC)C(=O)C1(c2ccccc2)CC1CN (centres unmarked)    0.21

// next item, cAMP accum. ε (intrinsic activity) requested
Output measured cAMP accum. ε (intrinsic activity) for this item: `O=c1[nH]c2cccc(N3CCN(Cc4cccc(-c5ccccc5)c4)CC3)c2o1`
0.20

* * *

# target.or.system: noradrenaline reuptake sites (Rattus norvegicus)
# test.summary: In vitro functional inhibition of [3H]-noradrenalin reuptake in rat hypothalamus synaptosomes
# Assay type: biochemical
# condition.info: rat hypothalamus synaptosomes
metric.name: NA uptake pIC50

Below, 5 molecules whose answers are already recorded.
1. CN1CCN(c2cccc3[nH]c(=O)oc23)CC1    <5.0
2. O=c1[nH]c2cccc(N3CCN(CCCc4c[nH]c5ccccc45)CC3)c2o1    <5.0
3. CCN(CC)C(=O)N[C@H]1C[C@@H]2c3cccc4[nH]cc(c34)C[C@H]2N(C)C1 [terguride]    <5.0
4. Cc1cccc2c(CCCN3CCN(c4cccc5[nH]c(=O)oc45)CC3)c[nH]c12    <5.0
5. O=c1[nH]c2cccc(N3CCN(CCCc4c[nH]c5ccc(F)cc45)CC3)c2o1    <5.0

Dear colleague, could you please provide NA uptake pIC50 for the molecules listed below?
1. COCCCC/C(=N\OCCN)c1ccc(C(F)(F)F)cc1
2. CCCN1CCC[C@@H](c2cccc(O)c2)C1

[5.3, 5.3]

Go through the list and state NA uptake pIC50 for each entry.
1. Cn1cc(CCCN2CCN(c3cccc4[nH]c(=O)oc34)CC2)c2cc(F)ccc21
2. O=c1[nH]c2cccc(N3CCN(CCCc4cn5c6c(cc(F)cc46)CCC5)CC3)c2o1

1. <5.0
2. 5.2
